# experimental.target: ACA-6501 aPL antibody
# protocol.notes: competitive ELISA I50; antibody not given, ACA-6501 serum on CL/β2-GPI assumed (Ex. 4B)
Square brackets hold non-standard residues; d marks the D form. Ends that are not written are not given here. Phg = N[C@H](C(=O)O)c1ccccc1; Aib = CC(C)(N)C(=O)O
# note: boundary value 300 µg/mL maps to FALSE; IC50 below it maps to TRUE

[
  {
    "binder": "AGPCLGVLGKLCPG [peptide ACA-6641/3G3 … (LJP 688)]",
    "class.assignment": "FALSE"
  },
  {
    "binder": "CLG[Phg]LGKLC (not fully specified (bridges); printed as CLG-pG-LGKLC; cysteine pairing not given here) [3G3 conformational scan 20: CLG-pG-LGKLC]",
    "class.assignment": "TRUE"
  },
  {
    "binder": "CLGVLG[Aib]LC (not fully specified (bridges); printed as CLGVLG-aiB-LC; cysteine pairing not given here) [3G3 conformational scan 30: CLGVLG-aiB-LC]",
    "class.assignment": "FALSE"
  },
  {
    "binder": "CLGVLG[dK][dL]C (not fully specified (bridges); cysteine pairing not given here) [3G3 D amino acids 18: CLGVLG-dK-dL-C]",
    "class.assignment": "TRUE"
  }
]

We next turn to a different binder, shown below.
IN: Dear colleague, could you confirm whether IC50 of CLGVLGKLC (not fully specified; "TGR resin" printed after the C-terminus) [3G3 others 3: … TGR resin] falls below 300 µg/mL? Thanks.
OUT: FALSE
